B1: CPEB3 Ribozyme (parent)
chain: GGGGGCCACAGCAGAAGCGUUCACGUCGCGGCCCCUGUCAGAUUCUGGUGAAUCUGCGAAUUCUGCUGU

Variants of: B1
MEASUREMENT DESCRIPTION: self-cleavage, relative activity (ratio to wild type); higher = more cleavage; co-transcriptional
Grouping by measured self-cleavage is done with the following cut points: bin A: < 0.3; bin B: ≥ 0.3 and < 0.5; bin C: ≥ 0.5

Into which category would you place AGGAGCCACAGCAGAAGCGUUCACGUCGCGGCCCCUGUCAGAUUCUGGUGAAUCUGCGAAUUCUGCUGU [G1A G4A] ? bin A

Into which category would you place GGGGGCCACAGCAGAAGGGUUCACGUCGCGGCCCCUGUCAGAUUCUGGUGAAUCCGCGAAUUCUGCUGU [C18G U55C] ? bin A

Into which category would you place GGGGGCCACAGCAGAAGCGUUCACGUCGCGGCCCCUGUCAGAUGCUGGUGGAUCUGCGAAUUCUGCUGU [U44G A51G] ? bin C

Into which category would you place GGGGGCCACAGCAGAAGCGUUUACGUCGCGGCCCCUGUCAGAUUCUGGUGAAUCUGCUAAUUCUGCUGU [C22U G58U] ? bin B

Into which category would you place GGGGGCCACAGCUGAAGCGUUCACGUCGCGGCCCCUGUCAGAUUCUGGUGAAUCUGCGAAGUCUGCUGU [A13U U61G] ? bin B

Into which category would you place AGGGGCCACAGCAGAAGCGUUCACGUCGCGGCCCCUGUCAGAUACUGGUGAAUCUGCGAAUUCUGCUGU [G1A U44A] ? bin A

Into which category would you place GGGGGCCACAGCAGAAGCGUUCACGUCGCGGCCCCGGUUAGAUUCUGGUGAAUCUGCGAAUUCUGCUGU [U36G C39U] ? bin A

Into which category would you place GGGGGCCACAGCAGAAGCGUUCACCUCGCGGCUCCUGUCAGAUUCUGGUGAAUCUGCGAAUUCUGCUGU [G25C C33U] ? bin A

Into which category would you place GGGGGCCACAGCAGAAGCGUUCACGUCGCGGCCCCUGUCAGAUUCUGGUUAAUCUGCGAAUACUGCUGU [G50U U62A] ? bin C

Into which category would you place GGGGGCCACAGCAGAAGCGUUCACGUCGCGGCCCCUGUCAGAUCCUGGUGAAUCUGCGAAUUCUGUUGU [U44C C66U] ? bin C

Into which category would you place GGGUGCCACAGCAGAAGCGUUCACGUCGCGGCCCCUGUCAGAUUCUGGUGAAUCUGCGAAUUCCGCUGU [G4U U64C] ? bin C

Into which category would you place GGGGGCCACAGCAGAAGCAUUCACGUCGCGGCCCCUGUAAGAUUCUGGUGAAUCUGCGAAUUCUGCUGU [G19A C39A] ? bin A

Into which category would you place GGGGGCCACAGCAGAAGCGUUCCCGUCGCGGCCUCUGUCAGAUUCUGGUGAAUCUGCGAAUUCUGCUGU [A23C C34U] ? bin C

Into which category would you place GGGGGCCACAGCAGAAGCGUUCACGUCGCGGCCCCUGUCAGAUUCUGGUGAAUCUGUGAAUUCUACUGU [C57U G65A] ? bin B

Into which category would you place GGGGGCCGCAGCAGAAGCGUUCACGUCGCGGCCCGUGUCAGAUUCUGGUGAAUCUGCGAAUUCUGCUGU [A8G C35G] ? bin B

Into which category would you place GGGGGCCACAGCAGAAGCGUUCACGACGCGGCCCUUGUCAGAUUCUGGUGAAUCUGCGAAUUCUGCUGU [U26A C35U] ? bin C

Into which category would you place GGGGGCCACAGCAGAAGCGUUCACGUCGCGGCCCCUGUCAGAUUCUGGCGAAUCUGCGAAUUCUGCUGC [U49C U69C] ? bin C

Into which category would you place GGGGGCCACAGCAGAGGCGUUCACGUCGCCGCCCCUGUCAGAUUCUGGUGAAUCUGCGAAUUCUGCUGU [A16G G30C] ? bin A

Into which category would you place GGGGGCCACAGCAGAAGCGUUGACGUCGUGGCCCCUGUCAGAUUCUGGUGAAUCUGCGAAUUCUGCUGU [C22G C29U] ? bin A

Data credit: the RNAGym collection of RNA variant scans (doi:10.7554/elife.80360)
